Measured values drawn from patent US9656981B2 for this set.

Listed next: entries and their corresponding Ki.
# test-system: CB1R (Homo sapiens, UniProt P21554)
# Sequence (P21554 whole entry): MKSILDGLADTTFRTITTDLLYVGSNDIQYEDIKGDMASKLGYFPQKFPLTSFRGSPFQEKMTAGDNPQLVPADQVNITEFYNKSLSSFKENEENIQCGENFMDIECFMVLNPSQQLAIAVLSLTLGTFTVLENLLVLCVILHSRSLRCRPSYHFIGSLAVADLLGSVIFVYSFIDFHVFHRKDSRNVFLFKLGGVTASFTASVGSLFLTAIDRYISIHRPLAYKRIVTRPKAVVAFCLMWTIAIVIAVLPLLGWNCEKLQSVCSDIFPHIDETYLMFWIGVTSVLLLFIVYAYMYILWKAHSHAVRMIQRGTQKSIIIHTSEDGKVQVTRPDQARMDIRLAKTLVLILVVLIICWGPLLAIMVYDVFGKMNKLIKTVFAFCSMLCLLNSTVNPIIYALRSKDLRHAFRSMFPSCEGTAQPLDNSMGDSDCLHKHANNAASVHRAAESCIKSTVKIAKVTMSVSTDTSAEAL
# assay-info: CB1R radioligand displacement binding assay (CP55940 radioligand)
# details: read-out: CB1R binding affinity (Ki)
Form entry: enter the amount, then its unit.

| compound-string | Ki |
| --- | --- |
| CCCCCn1cc(C(=O)c2ccc(C(=O)OC)c3ccccc23)c2ccccc21 | 20 nM |
| CCCc1ccc(/C=C2\C=C(CCN3CCOCC3)c3ccccc32)c2ccccc12 | 1.18 nM |
| C1=C(CCN2CCOCC2)c2ccccc2/C1=C/c1cccc2ccccc12 | 4.69 nM |

As a next step, examine the compound that follows.
Ask | Consider the compound shown here: C1=C(CCN2CCOCC2)c2ccccc2/C1=C/c1ccc2c3c(cccc13)CC2 What is its recorded Ki?
Reply | 15.9 nM

====

# test-system: CB1R (Homo sapiens)
# assay-info: CB1R radioligand displacement binding assay (CP55940 radioligand)
measure-name: Ki (nM)
Your answer is read as nM, so omit the unit and give the number.

Illustrative cases are given below, each with its answer.
| compound-string | measure-name | quantity-unit | value-observed |
| --- | --- | --- | --- |
| CCc1ccc(/C=C2\C=C(CCN3CCOCC3)c3ccccc32)c2ccccc12 | Ki | nM | 1 |
| C1=C(CCN2CCOCC2)c2ccccc2/C1=C/c1ccnc2ccccc12 | Ki | nM | 23 |
| CCCc1ccc(/C=C2\C=C(CCN3CCOCC3)c3ccccc32)c2ccccc12 | Ki | nM | 1 |
| COc1ccc(/C=C2\C=C(CCN3CCOCC3)c3ccccc32)c2ccccc12 | Ki | nM | 2.4 |

As a next step, examine the compound that follows.
Ask | Consider the compound shown here: CCCCCCC1=C/C(=C\Cc2ccccc2)c2ccccc21 What is its recorded Ki?
Reply | 4410

====

# test-system: UniProt P34972
# assay-info: CB2R radioligand displacement binding assay (CP55940 radioligand)
# details: Table 1; CP55940 radioligand; read-out: CB2_KI_CP
Listed next: entries and their corresponding log10 Ki.
Base-10 log of Ki, unit nM.

Illustrative cases are given below, each with its answer.
| compound-string | log10 Ki |
| --- | --- |
| CCc1ccc(/C=C2\C=C(CCN3CCOCC3)c3ccccc32)c2ccccc12 | -0.10 |
| CCCCCn1cc(C(=O)c2cccc3ccccc23)c2cc(F)ccc21 | 1.81 |
| CCCCCn1cc(C(=O)c2cccc3ccccc23)c2ccc(F)cc21 | 1.21 |

Ask | Consider the compound shown here: C1=C(CCN2CCOCC2)c2ccccc2/C1=C/c1cccc2ccccc12 What is its recorded log10 Ki?
Reply | 0.75

Ask | Consider the compound shown here: CCCCCn1cc(C(=O)c2cccc3ccccc23)c2cccc(F)c21 What is its recorded log10 Ki?
Reply | 0.43

Ask | Consider the compound shown here: CCCCCn1cc(C(=O)c2cccc3ccccc23)c2c(F)cccc21 What is its recorded log10 Ki?
Reply | 1.55

Ask | Consider the compound shown here: C1=C(CCN2CCOCC2)c2ccccc2/C1=C/c1ccc2c3c(cccc13)CC2 What is its recorded log10 Ki?
Reply | 0.63

Ask | Consider the compound shown here: CCCc1ccc(/C=C2\C=C(CCN3CCOCC3)c3ccccc32)c2ccccc12 What is its recorded log10 Ki?
Reply | 0.00

====

# test-system: CB1R (Homo sapiens)
# assay-info: CB1R radioligand displacement binding assay (CP55940 radioligand)
# details: Table 1; CP55940 radioligand; read-out: CB1_KI_CP
pKi: −log10 of the molar value.
# binarize pKi: threshold 7 inclusive, high side 1.0, low side 0.0

Would you please look over these solved cases?
| compound | test-system | cat |
| --- | --- | --- |
| O=C(c1cccc2ccccc12)c1cn(CCCCCF)c2cccc(F)c12 | CB1R (Homo sapiens) | 1.0 |
| CCCCCn1cc(C(=O)c2cccc3ccccc23)c2cccc(F)c21 | CB1R (Homo sapiens) | 1.0 |
| C1=C(CCN2CCOCC2)c2ccccc2/C1=C/c1cccc(-c2ccccc2)c1 | CB1R (Homo sapiens) | 0.0 |
| Cc1ccc(C(=O)c2cn(CC[N+]3(C)CCOCC3)c3ccccc23)c2ccccc12 | CB1R (Homo sapiens) | 0.0 |
| CC1=C(CC[N+]2(C)CCOCC2)c2ccccc2/C1=C/c1cccc2ccccc12 | CB1R (Homo sapiens) | 0.0 |
| COc1ccc(/C=C2\C=C(CCN3CCOCC3)c3ccccc32)c2ccccc12 | CB1R (Homo sapiens) | 1.0 |
| CCOC(=O)CCCn1cc(C(=O)c2cccc3ccccc23)c2ccccc21 | CB1R (Homo sapiens) | 0.0 |
| CCCCCn1cc(C(=O)c2cccc3ccccc23)c2cc(F)ccc21 | CB1R (Homo sapiens) | 1.0 |
| Ic1ccccc1/C=C1\C=C(CCN2CCOCC2)c2ccccc21 | CB1R (Homo sapiens) | 0.0 |
| CCCCCn1cc(C(=O)c2cccc3ccccc23)c2ccc(F)cc21 | CB1R (Homo sapiens) | 1.0 |

Ask | // inclusive: pKi at least 7? input: CCc1ccc(/C=C2\C=C(CCN3CCOCC3)c3ccccc32)c2ccccc12
Reply | 1.0

Ask | // inclusive: pKi at least 7? input: C1=C(CCN2CCOCC2)c2ccccc2/C1=C/c1cccc2cnccc12
Reply | 0.0

Ask | // inclusive: pKi at least 7? input: Fc1ccccc1/C=C1\C=C(CCN2CCOCC2)c2ccccc21
Reply | 0.0

Ask | // inclusive: pKi at least 7? input: CCCCCn1cc(C(=O)c2ccc(C(=O)CC)c3ccccc23)c2ccccc21
Reply | 1.0

Ask | // inclusive: pKi at least 7? input: C[N+]1(CCC2=C/C(=C\c3cccc4ccccc34)c3ccccc32)CCOCC1
Reply | 0.0

Ask | // inclusive: pKi at least 7? input: Brc1ccccc1/C=C1\C=C(CCN2CCOCC2)c2ccccc21
Reply | 0.0

Ask | // inclusive: pKi at least 7? input: CCCCCn1cc(C(=O)c2cccc3ccccc23)c2c(F)cccc21
Reply | 1.0

Ask | // inclusive: pKi at least 7? input: C1=C(CCN2CCOCC2)c2ccccc2/C1=C/c1ccccc1
Reply | 0.0

Ask | // inclusive: pKi at least 7? input: COc1ccc(C(=O)c2cn(CC[N+]3(C)CCOCC3)c3ccccc23)c2ccccc12
Reply | 0.0

====

# test-system: CB2R (Homo sapiens)
# assay-info: CB2R radioligand displacement binding assay (CP55940 radioligand)
Listed next: entries and their corresponding Ki.
Your answer is read as nM, so omit the unit and give the number.

Illustrative cases are given below, each with its answer.
| compound | Ki (nM) |
| --- | --- |
| C1=C(CCN2CCOCC2)c2ccccc2/C1=C/c1ccccc1-c1ccccc1 [Compound 16] | 15.3 |
| C1=C(CCN2CCOCC2)c2ccccc2/C1=C/c1cccc2cc[nH]c12 [Compound 17] | 8.7 |
| CCCCCn1cc(C(=O)c2ccc(C(=O)OCC)c3ccccc23)c2ccccc21 [Compound 58] | 53.9 |
| C1=C(CCN2CCOCC2)c2ccccc2/C1=C/c1ccco1 [Compound 31] | 1260 |

As a next step, examine the compound that follows.
Ask | Consider the compound shown here: C1=C(CCN2CCOCC2)c2ccccc2/C1=C/c1cccc2cnccc12 [Compound 22] What is its recorded Ki?
Reply | 51.4

====

# test-system: CB2R (Homo sapiens, UniProt P34972)
# Sequence (P34972 whole entry): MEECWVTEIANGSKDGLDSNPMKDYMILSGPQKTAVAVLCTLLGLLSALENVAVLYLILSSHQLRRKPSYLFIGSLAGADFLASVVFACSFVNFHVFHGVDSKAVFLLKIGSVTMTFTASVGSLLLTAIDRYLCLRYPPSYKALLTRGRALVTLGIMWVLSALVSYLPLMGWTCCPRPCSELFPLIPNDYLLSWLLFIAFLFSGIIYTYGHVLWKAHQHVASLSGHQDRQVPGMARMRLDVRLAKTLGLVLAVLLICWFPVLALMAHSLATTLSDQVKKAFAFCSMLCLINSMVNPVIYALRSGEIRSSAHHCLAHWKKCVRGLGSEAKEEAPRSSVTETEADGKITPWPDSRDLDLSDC
# assay-info: CB2R radioligand displacement binding assay (CP55940 radioligand)
Listed next: entries and their corresponding pKi.
# reply with the number alone; pKi is -log10 of concentration in mol/L

| compound | test-system | pKi |
| --- | --- | --- |
| CCCCCC1=C/C(=C\c2cccc3ccccc23)c2ccccc21 [Compound 19, reference compound] | CB2R (Homo sapiens, UniProt P34972) | 6.79 |
| C1=C(CCN2CCOCC2)c2ccccc2/C1=C/c1cccc2ccc3ccccc3c12 [Compound 13] | CB2R (Homo sapiens, UniProt P34972) | 8.22 |
| O=C(c1cccc2ccccc12)c1cn(CCCCCF)c2cccc(F)c12 [Compound 66] | CB2R (Homo sapiens, UniProt P34972) | 8.53 |

Ask | Consider the compound shown here: COC(=O)c1ccc(C(=O)c2cn(CCN3CCOCC3)c3ccccc23)c2ccccc12 [Compound 56] What is its recorded pKi?
Reply | 7.21

====

# test-system: UniProtKB P21554
# assay-info: CB1R radioligand displacement binding assay (CP55940 radioligand)
# details: Table 1; CP55940 radioligand; read-out: CB1_KI_CP
Lab note: anything with Ki below 0.09 µM is marked True; values at 0.09 µM or higher are marked False.

Ask | Does the reported Ki of C1=C(CCN2CCOCC2)c2ccccc2/C1=C/c1ccccc1-c1ccccc1 [Compound 16] stay below 0.09 µM?
Reply | True

Ask | Does the reported Ki of CCCCCn1cc(C(=O)c2ccc(C(N)=O)c3ccccc23)c2ccccc21 [Compound 59] stay below 0.09 µM?
Reply | False

Ask | Does the reported Ki of O=C(c1cccc2ccccc12)c1cn(CCN2CCOCC2)c2ccccc12 [Compound 39, reference compound] stay below 0.09 µM?
Reply | True

Ask | Does the reported Ki of C1=C(CCN2CCOCC2)c2ccccc2/C1=C/c1ccc2ccccc2c1 [Compound 20] stay below 0.09 µM?
Reply | False

Ask | Does the reported Ki of CCCCCn1cc(C(=O)c2ccc(C(=O)NC)c3ccccc23)c2ccccc21 [Compound 60] stay below 0.09 µM?
Reply | False

Ask | Does the reported Ki of C1=C(CCN2CCOCC2)c2ccccc2/C1=C/c1cccc2cc[nH]c12 [Compound 17] stay below 0.09 µM?
Reply | False

Ask | Does the reported Ki of COc1ccccc1/C=C1\C=C(CCN2CCOCC2)c2ccccc21 [Compound 18] stay below 0.09 µM?
Reply | False

Ask | Does the reported Ki of CCCCCn1cc(C(=O)c2ccc(C(=O)OCC)c3ccccc23)c2ccccc21 [Compound 58] stay below 0.09 µM?
Reply | False

Ask | Does the reported Ki of Clc1ccccc1/C=C1\C=C(CCN2CCOCC2)c2ccccc21 [Compound 26] stay below 0.09 µM?
Reply | False

Ask | Does the reported Ki of CCCCCn1cc(C(=O)c2cccc3ccccc23)c2ccccc21 [Compound 1, reference compound] stay below 0.09 µM?
Reply | True

Ask | Does the reported Ki of CCCc1ccc(C(=O)c2cn(CCCCCF)c3cccc(F)c23)c2ccccc12 [Compound 67] stay below 0.09 µM?
Reply | True

Ask | Does the reported Ki of Cc1ccc(C(=O)c2cn(CCN3CCOCC3)c3ccccc23)c2ccccc12 [Compound 44, reference compound] stay below 0.09 µM?
Reply | True

Ask | Does the reported Ki of Cc1ccccc1/C=C1\C=C(CCN2CCOCC2)c2ccccc21 [Compound 24] stay below 0.09 µM?
Reply | False

Ask | Does the reported Ki of O=C(c1cccc2ccccc12)c1cn(CCN2CCOCC2)c2cccc(F)c12 [Compound 68] stay below 0.09 µM?
Reply | False

Ask | Does the reported Ki of C1=C(CCN2CCOCC2)c2ccccc2/C1=C/c1ccnc2ccccc12 [Compound 14] stay below 0.09 µM?
Reply | True
